System: Rattus norvegicus
assay: In vivo inhibition of opioid receptor in obese rat assessed as compound dose causing effective decrease in feeding behavior
Format: functional
value.type: ED

* CC(C)(C)CCNCc1ccc(Oc2ccc(C(N)=O)cn2)cc1 | <=3 ug/kg
* Cc1cc(CNCCC(C)C)ccc1Oc1ccc(C(N)=O)cn1 | 0.3 mg/kg
* NC(=O)c1ccc(Oc2ccc(CNCCC3CCCC3)cc2)nc1 | <=3 ug/kg
* CCCCCNCc1ccc(Oc2ccc(C(N)=O)cc2)cc1 | 3 mg/kg
* NC(=O)c1ccc(Oc2ccc(CNCCc3cccs3)cc2)nc1 | <=3 ug/kg
* CC(C)CCNCc1ccc(Oc2ccc(C(N)=O)cn2)cc1 | 0.3 mg/kg
* CC(C)CCNCc1ccc(Oc2ccc(C(N)=O)cn2)c(F)c1 | 0.3 mg/kg

---

System: Rattus norvegicus
assay: Ex vivo inhibition of [3H]-Diprenophine binding to delta opioid receptor in striatum/nucleus accumbens isolated from rat treated with compound at 7 mg/kg, po for 6 hrs measured after 30 mins post [3H]-Diprenophine addition to tissue relative to control
Format: functional
In this section we review reported inhibition in vivo at 7 mg/kg values for a set of molecules.
value.type: inhibition in vivo at 7 mg/kg (%)

* COc1cc(CNCCc2ccccc2F)ccc1Oc1ccc(C(N)=O)cn1 | 54
* NC(=O)c1ccc(Oc2ccc(CNCCc3cccc(F)c3)cc2)nc1 | 40
* CC(C)CCNCc1ccc(Oc2ccc(C(N)=O)cn2)c(Cl)c1 | 77
* CC(C)(C)CCNCc1ccc(Oc2ccc(C(N)=O)cn2)c(Cl)c1 | 83
* Cc1cc(CNCCC(C)(C)C)ccc1Oc1ccc(C(N)=O)cn1 | 59
* NC(=O)c1ccc(Oc2ccc(CNCCc3ccc(F)cc3)cc2)cc1 | 50
* NC(=O)c1ccc(Oc2ccc3c(c2)CCCN(CCc2ccccc2)C3)nc1 | 62
* CCCCCNCc1ccc(Oc2ccc(C(N)=O)cn2)c(OC)c1 | 75
* CCCCNCc1ccc(Oc2ccc(C(N)=O)cn2)c(C)c1 | 38
* CC(C)(C)CCNCc1ccc(Oc2ccc(C(N)=O)cn2)cc1 | 62
* CCCCCNCc1ccc(Oc2ccc(C(N)=O)nc2)c(F)c1 | 55
* COc1cc(CNCCC(C)(C)C)ccc1Oc1ccc(C(N)=O)cn1 | 55
* NC(=O)c1ccc(Oc2ccc(CNCCC3CCCCC3)cc2)nc1 | 79
* Cc1cc(CNCCC(C)C)ccc1Oc1ccc(C(N)=O)cc1F | 58
* Cc1cc(CNCCC(C)C)ccc1Oc1ccc(C(N)=O)cn1 | 55

---

Tested on: Rattus norvegicus
assay: Antiobesity activity in diet-induced obese rat assessed as energy balance at 3 mg/kg, po measured up to 24 hrs by indirect calorimetry assay
Format: functional
Each entry below carries its recorded Activity.
value.type: Activity (kcal/kg/day)

- CC(C)CCNCc1ccc(Oc2ccc(C(N)=O)cn2)c(F)c1: -81
- CC(C)CCNCc1ccc(Oc2ccc(C(N)=O)cn2)cc1: -35
- CC(C)(C)CCNCc1ccc(Oc2ccc(C(N)=O)cn2)cc1: -56
- Cc1cc(CNCCC(C)C)ccc1Oc1ccc(C(N)=O)cn1: -68
- CCCCCNCc1ccc(Oc2ccc(C(N)=O)cc2)cc1: -65
- C[C@H]1CN(CC[C@H](O)C2CCCCC2)CC[C@@]1(C)c1cccc(O)c1: -36
- NC(=O)c1ccc(Oc2ccc(CNCCc3cccs3)cc2)nc1: -19
- NC(=O)c1ccc(Oc2ccc(CNCCC3CCCC3)cc2)nc1: -39

Taken from ChEMBL document CHEMBL3880403.
